assay: Cytotoxicity against human HuH7 cells assessed as reduction in cell viability after 48 hrs by MTT assay; type: cell-based, Huh-7
Parameter CC50 at 48 h: see the listing below.
assay_readout: CC50 at 48 h (µM)

smiles: CN(C)CCCCOC(=O)Nc1ccc(Cn2nc(-c3ccccc3F)c3ccccc3c2=O)cc1
assay_readout: CC50 at 48 h
uom: µM
measurement: 52.5
--
smiles: CN(C)CCCCOC(=O)Nc1ccccc1Cn1nc(-c2ccc(F)cc2)c2ccccc2c1=O
assay_readout: CC50 at 48 h
uom: µM
measurement: 48.5
--
smiles: CN(C)CCCCOC(=O)Nc1ccc(Cn2nc(-c3cccc(F)c3)c3ccccc3c2=O)cc1
assay_readout: CC50 at 48 h
uom: µM
measurement: 37.4
--
smiles: CN(C)CCCCOC(=O)Nc1ccc(Cn2nc(-c3cccc(C#N)c3)c3ccccc3c2=O)cc1
assay_readout: CC50 at 48 h
uom: µM
measurement: 17.2
